# System: NCI-H460 lung
# test: NCI-60 one-dose screen, 48 h
# run conditions: 10 µM unless noted
This is part of a sample that, as a whole, favours compounds with a hit. Of some 83,000 tested, about 20% had one in any assay. Calls of active or inactive are those of the source. Rule for the calls: active = growth percent below 10; inactive = the rest.
Please reply with one of these outcomes: true for active, false for inactive

Solved cases (3 shown):
molecule	category label
CCNC(=O)N1CCc2c(Cl)c3c(c(OC)c2[C@@H]1[C@H]1OCc2c1ccc(OC)c2OC)OCCO3	true
COc1cc(/C=C/C(=O)/C=C/c2ccc(-n3ccnc3)cc2)ccc1O	false
C[N+](C)(C)c1ncnc2[n-]cnc12	false

Prompt line: How did this test come out for `CCOc1ccc(/C=C(\C#N)c2cc3ccccc3[nH]2)cc1` ?
Response line: false
